- subject of test: Plasminogen (Homo sapiens)
- test details: Inhibition of plasmin assessed as specific activity at 0.5 mM
- Parameters: scale not given: the % may be the effect or the level left
Peptide text beside a SMILES is read from it.
recorded endpoint: Activity

q: Please give the measured Activity for this compound: CC(C)[C@H](NC(=O)CNC(=O)CNC(=O)[C@H](CC(=O)O)NC(=O)[C@@H](NC(=O)[C@@H](N)CO)[C@@H](C)O)C(=O)Nc1ccc([N+](=O)[O-])cc1 (HELM PEPTIDE1{S.T.D.G.G.V.[O=[N+]([O-])c1ccc(N[*:1])cc1]}$$$$V2.0)
a: 2%

q: Form field: reported Activity of CC(C)[C@H](NC(=O)[C@@H]1CCCN1C(=O)[C@@H](NC(=O)[C@H](C)NC(=O)CNC(=O)[C@H](CO)NC(=O)CNC(=O)[C@H](CO)NC(=O)[C@H](CC(N)=O)NC(=O)[C@H](CCCCN)NC(=O)CNC(=O)[C@@H](N)CCCCN)[C@@H](C)O)C(=O)Nc1ccc([N+](=O)[O-])cc1 (HELM PEPTIDE1{K.G.K.N.S.G.S.G.A.T.P.V.[O=[N+]([O-])c1ccc(N[*:1])cc1]}$$$$V2.0)
a: < 1%

q: Item under review: CC(C)C[C@H](NC(=O)CN)C(=O)N[C@@H](C)C(=O)N[C@H](C(=O)NCC(=O)N[C@@H](CC(N)=O)C(=O)N[C@H](C(=O)N[C@@H](CO)C(=O)N[C@H](C(=O)N[C@@H](C)C(=O)N[C@@H](CCC(=O)O)C(=O)N[C@@H](CC(C)C)C(=O)N[C@@H](CCC(N)=O)C(=O)N[C@@H](CC(=O)O)C(=O)N[C@@H](C)C(=O)N[C@H](C(=O)N1CCC[C@H]1C(=O)N[C@@H](C)C(=O)Nc1ccc([N+](=O)[O-])cc1)[C@H](C)O)[C@@H](C)O)C(C)C)[C@@H](C)O . Reported Activity?
a: < 1%

q: Given CSCC[C@H](NC(=O)[C@H](CCSC)NC(=O)[C@@H]1CCCN1C(=O)[C@H](CC(C)C)NC(=O)[C@@H](NC(=O)[C@H](CC(N)=O)NC(=O)[C@H](Cc1ccccc1)NC(=O)[C@@H](N)C(C)C)[C@@H](C)O)C(=O)NCC(=O)N[C@@H](CCCCN)C(=O)N[C@@H](C)C(=O)N[C@@H](CO)C(=O)N1CCC[C@H]1C(=O)N[C@H](C(=O)Nc1ccc([N+](=O)[O-])cc1)C(C)C (HELM PEPTIDE1{V.F.N.T.L.P.M.M.G.K.A.S.P.V.[O=[N+]([O-])c1ccc(N[*:1])cc1]}$$$$V2.0) , state its recorded Activity.
a: < 1%

q: Quick check: Activity of CC(C)[C@H](NC(=O)[C@H](CCC(=O)O)NC(=O)[C@H](Cc1ccc(O)cc1)NC(=O)CNC(=O)[C@H](CO)NC(=O)[C@H](CC(=O)O)NC(=O)[C@H](Cc1cnc[nH]1)NC(=O)[C@H](CCCNC(=N)N)NC(=O)[C@H](Cc1ccccc1)NC(=O)[C@H](CCC(=O)O)NC(=O)[C@H](C)NC(=O)[C@H](CC(=O)O)NC(=O)[C@@H](N)CO)C(=O)Nc1ccc([N+](=O)[O-])cc1 ?
a: < 1%

###

- test details: Inhibition of subtilisin assessed as specific activity at 0.5 mM
- Parameters: scale not given: the % may be the effect or the level left
recorded endpoint: Activity

q: Recorded Activity of CSCC[C@H](NC(=O)[C@H](CCSC)NC(=O)[C@@H]1CCCN1C(=O)[C@H](CC(C)C)NC(=O)[C@@H](NC(=O)[C@H](CC(N)=O)NC(=O)[C@H](Cc1ccccc1)NC(=O)[C@@H](NC(=O)[C@@H]1CCCN1)C(C)C)[C@H](C)O)C(=O)NCC(=O)N[C@@H](CCCCN)C(=O)N[C@@H](C)C(=O)N[C@@H](CO)C(=O)N1CCC[C@H]1C(=O)N[C@H](C(=O)Nc1ccc([N+](=O)[O-])cc1)C(C)C , please.
a: < 1%

###

Could you please report measured Activity for the items listed next?
- test details: Inhibition of trypsin assessed as residual proteolytic activity at 0.5 mM
Peptide text beside a SMILES is read from it.
Supply the numeric figure in %, leaving out any unit text.

q: Field request: Activity | item: CSCC[C@H](NC(=O)[C@H](CCSC)NC(=O)[C@@H]1CCCN1C(=O)[C@H](CC(C)C)NC(=O)[C@@H](NC(=O)[C@H](CC(N)=O)NC(=O)[C@H](Cc1ccccc1)NC(=O)[C@@H](N)C(C)C)[C@@H](C)O)C(=O)NCC(=O)N[C@@H](CCCCN)C(=O)N[C@@H](C)C(=O)N[C@@H](CO)C(=O)N1CCC[C@H]1C(=O)N[C@H](C(=O)CCl)C(C)C (HELM PEPTIDE1{V.F.N.T.L.P.M.M.G.K.A.S.P.V.[ClC[*:1]]}$$$$V2.0)
a: 287

q: Which value of Activity has been reported for CC(C)[C@H](NC(=O)[C@H](CCCNC(=N)N)NC(=O)CNC(=O)[C@@H](N)CO)C(=O)N[C@H](C(=O)N1CCC[C@H]1C(=O)NCC(=O)N[C@@H](Cc1ccc(O)cc1)C(=O)NCC(=O)N[C@@H](Cc1cnc[nH]1)C(=O)N[C@@H](C)C(=O)CCl)C(C)C (HELM PEPTIDE1{S.G.R.V.V.P.G.Y.G.H.A.[ClC[*:1]]}$$$$V2.0) in the records?
a: 285

q: Item CSCC[C@H](NC(=O)[C@@H]1CCCN1C(=O)[C@@H](N)CO)C(=O)N[C@@H](Cc1ccccc1)C(=O)N[C@@H](CCCCN)C(=O)NCC(=O)N[C@H](C(=O)CCl)C(C)C (HELM PEPTIDE1{S.P.M.F.K.G.V.[ClC[*:1]]}$$$$V2.0) has what recorded Activity?
a: 354

###

- test details: Inhibition of subtilisin assessed as specific activity at 0.5 mM
- Set-up: scale not given: the % may be the effect or the level left
Peptide text beside a SMILES is read from it.
recorded endpoint: Activity (%)
Kindly answer with a numeric value in %, unit omitted.

q: Sample CSCC[C@H](NC(=O)[C@@H]1CCCN1C(=O)[C@@H](N)CC(=O)O)C(=O)N[C@@H](Cc1ccccc1)C(=O)N[C@@H](CCCCN)C(=O)N[C@@H](CC(C)C)C(=O)N[C@H](C(=O)Nc1ccc([N+](=O)[O-])cc1)C(C)C (HELM PEPTIDE1{D.P.M.F.K.L.V.[O=[N+]([O-])c1ccc(N[*:1])cc1]}$$$$V2.0) — what was its Activity?
a: 1

q: Entry CC(C)C[C@H](NC(=O)CN)C(=O)N[C@@H](C)C(=O)N[C@H](C(=O)NCC(=O)N[C@@H](CC(N)=O)C(=O)N[C@H](C(=O)N[C@@H](CO)C(=O)N[C@H](C(=O)N[C@@H](C)C(=O)N[C@@H](CCC(=O)O)C(=O)N[C@@H](CC(C)C)C(=O)N[C@@H](CCC(N)=O)C(=O)N[C@@H](CC(=O)O)C(=O)N[C@@H](C)C(=O)N[C@H](C(=O)N1CCC[C@H]1C(=O)N[C@@H](C)C(=O)Nc1ccc([N+](=O)[O-])cc1)[C@H](C)O)[C@@H](C)O)C(C)C)[C@@H](C)O : reported Activity = ?
a: 1520

q: Quick check: Activity of CC(C)[C@H](NC(=O)[C@@H]1CCCN1C(=O)[C@@H](NC(=O)[C@H](C)NC(=O)CNC(=O)[C@H](CO)NC(=O)CNC(=O)[C@H](CO)NC(=O)[C@H](CC(N)=O)NC(=O)[C@H](CCCCN)NC(=O)CNC(=O)[C@@H](N)CCCCN)[C@@H](C)O)C(=O)Nc1ccc([N+](=O)[O-])cc1 (HELM PEPTIDE1{K.G.K.N.S.G.S.G.A.T.P.V.[O=[N+]([O-])c1ccc(N[*:1])cc1]}$$$$V2.0) ?
a: 34

q: # input molecule: CC(C)[C@H](NC(=O)[C@H](CCC(=O)O)NC(=O)[C@H](Cc1ccc(O)cc1)NC(=O)CNC(=O)[C@H](CO)NC(=O)[C@H](CC(=O)O)NC(=O)[C@H](Cc1cnc[nH]1)NC(=O)[C@H](CCCNC(=N)N)NC(=O)[C@H](Cc1ccccc1)NC(=O)[C@H](CCC(=O)O)NC(=O)[C@H](C)NC(=O)[C@H](CC(=O)O)NC(=O)[C@@H](N)CO)C(=O)Nc1ccc([N+](=O)[O-])cc1 ; wanted: its Activity
a: 2

q: I'd like to know its Activity. The molecule in question is CC(C)[C@H](NC(=O)[C@H](CCCNC(=N)N)NC(=O)CNC(=O)[C@@H](N)CO)C(=O)N[C@H](C(=O)N1CCC[C@H]1C(=O)NCC(=O)N[C@@H](Cc1ccc(O)cc1)C(=O)NCC(=O)N[C@@H](Cc1cnc[nH]1)C(=O)N[C@@H](C)C(=O)Nc1ccc([N+](=O)[O-])cc1)C(C)C (HELM PEPTIDE1{S.G.R.V.V.P.G.Y.G.H.A.[O=[N+]([O-])c1ccc(N[*:1])cc1]}$$$$V2.0)
a: 2970
